- EXPERIMENT NOTES: modulators of mitochondrial supercomplex assembly, cell-based, luminescence, Hoechst nuclei count (AID 1645838);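 further: control cybrid cells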
- SETTINGS: Cells, luminescence/Hoechst cell count ratio, supercomplex reporter; measured here: cell number, Hoechst nuclei count
Out of some 2,000 compounds screened, about 100 (5%) were called active. The sample holds actives, similar compounds and a random draw of the others, so the mix is not that of the screen.
QUANTITY NAME: cell count
// no unit, no text: just the number

Known results for compounds:
compound=CCCCC/C=C\C/C=C\C/C=C\C/C=C\CCCC(=O)NC(CO)CO reported_result=4470
compound=CCCCCCC(=O)O[C@H]1CC[C@H]2[C@@H]3C=CC4=CC(=O)CC[C@]4(C)[C@H]3CC[C@]12C reported_result=5360
compound=O=NN(O)N1CCC[C@H]1C(=O)O reported_result=5130
compound=CCCCC/C=C\C/C=C\C/C=C\C/C=C\CCCC(=O)N[C@H](C)CO reported_result=6100
compound=CNCCCCCCN(C)N(O)N=O reported_result=6050

Per the record, `CN=C(NS(=O)(=O)c1ccc(Cl)cc1)N1C[C@@H](c2ccccc2)C(c2ccc(Cl)cc2)=N1` has cell count of 5290

Per the record, `CCCCC/C=C\C/C=C\C/C=C\C/C=C\CCCC(=O)N[C@@H](C)CO` has cell count of 5800

Per the record, CCCC[C@@H](C)C(OC(=O)C[C@@H](CC(=O)O)C(=O)O)C(C[C@@H](C)C[C@H](O)CCCC[C@@H](O)C[C@H](O)[C@H](C)N)OC(=O)C[C@@H](CC(=O)O)C(=O)O (stereo not given in full) has cell count of 5860

Per the record, `CCCCCCC(=O)CCCCCC/C=C/C[C@@H](O)[C@H](O)[C@@](N)(CO)C(=O)O` has cell count of 4740

Per the record, `CCCCCCCC/C=C\CCCCCCCC(=O)N[C@H](C)CO` has cell count of 5170

----------
- EXPERIMENT NOTES: modulators of mitochondrial supercomplex assembly, cell-based, luminescence, Hoechst nuclei count (AID 1645838);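 further: control cybrid cells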
- SETTINGS: Cells, luminescence/Hoechst cell count ratio, supercomplex reporter; measured here: cell number, Hoechst nuclei count; library stock concentration (final well concentration not given) 2 mM
About 100 (5%) of roughly 2,000 compounds were called active. This excerpt belongs to a sample that is enriched for actives.
QUANTITY NAME: cell count

Known results for molecules:
molecule="Cc1sc2c(c1C)C(c1ccc(Cl)cc1)=NC(CC(=O)OC(C)(C)C)c1nnc(C)n1-2 (centres undefined)" reported_result=3540
molecule=NCCc1c(Cl)cccc1Cl reported_result=5540
molecule=O=C1C(=O)c2cccc3cccc1c23 reported_result=4940

The record that follows has no cell count shown yet.
Per the record, CS(=O)CCCCN=C=S (centres undefined) has cell count of 5610

----------
- EXPERIMENT NOTES: modulators of mitochondrial supercomplex assembly, cell-based, luminescence, Hoechst nuclei count (AID 1645838);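 further: control cybrid cells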;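 on z-score: higher means more mitochondrial supercomplex formation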
- SETTINGS: Cells, luminescence/Hoechst cell count ratio, supercomplex reporter; library stock concentration (final well concentration not given) 400 uM
Hit rate of the full screen: of about 2,000 compounds, about 100 (5%) were called active. Cut-off read from the data, not from the text of the source: active = z-score above about 2; inactive = the rest. The list comes from a sample in which actives are over-represented; it also holds close analogues and randomly drawn compounds.
Classes to choose from: active, inactive

compound=O=C1C(=O)c2cccc3cccc1c23 class=inactive
compound="COC1C(OC(=O)NC(=O)CCl)CC[C@]2(CO2)[C@@H]1[C@@]1(C)OC1CC=C(C)C (stereo not given in full)" class=inactive
compound="CC1CNCCc2ccc(Cl)cc21 (stereo not given)" class=inactive
compound="Cc1sc2c(c1C)C(c1ccc(Cl)cc1)=NC(CC(=O)Nc1ccc(O)cc1)c1nnc(C)n1-2 (stereo not given)" class=active

Note: attention shifts to another entry.
Please indicate how the test categorized CS(=O)CCCCN=C=S (stereo not given) .
inactive
